Field: OD450. Provide a value for each of the binders that follow.
Target: T1, human MSLN-FL-his protein (human, UniProt Q13421 296-580)
T1 construct: also called human MSLN full-length protein; hMSLN-FL-his; not shown: His tag
T1 sequence (Q13421 other isoform, or with tags, fused parts or gaps): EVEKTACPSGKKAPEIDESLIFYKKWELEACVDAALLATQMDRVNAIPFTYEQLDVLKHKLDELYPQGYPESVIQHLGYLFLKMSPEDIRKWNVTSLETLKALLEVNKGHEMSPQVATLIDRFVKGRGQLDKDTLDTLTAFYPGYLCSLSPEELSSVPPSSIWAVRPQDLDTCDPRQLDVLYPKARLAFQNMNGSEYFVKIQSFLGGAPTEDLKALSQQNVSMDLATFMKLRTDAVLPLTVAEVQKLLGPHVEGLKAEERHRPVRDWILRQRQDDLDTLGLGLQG
Experiment: ELISA, coated antigen; antibody 0.01 nM
Numbers only, in OD450.

| binder | OD450 / OD450 |
| --- | --- |
| S009-F6-62.5 (antibody, human IgG1, kappa, V domains shown, Human-murine chimeric antibody, human IgG1/kappa constant regions) VH: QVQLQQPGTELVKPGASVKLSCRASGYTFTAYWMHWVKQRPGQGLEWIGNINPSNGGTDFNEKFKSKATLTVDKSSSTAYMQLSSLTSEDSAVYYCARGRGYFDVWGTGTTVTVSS VL: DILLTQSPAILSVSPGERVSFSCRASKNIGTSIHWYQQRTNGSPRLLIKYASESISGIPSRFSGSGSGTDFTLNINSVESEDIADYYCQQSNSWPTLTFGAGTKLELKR | 0.94 |

For each of the items listed, what is its OD450?
1. S009-F6-76.1 (antibody, human IgG1, kappa, V domains shown, Human-murine chimeric antibody, human IgG1/kappa constant regions) VH: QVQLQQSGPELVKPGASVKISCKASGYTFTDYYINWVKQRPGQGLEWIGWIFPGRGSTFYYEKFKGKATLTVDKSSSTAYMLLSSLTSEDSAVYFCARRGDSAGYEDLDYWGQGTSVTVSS VL: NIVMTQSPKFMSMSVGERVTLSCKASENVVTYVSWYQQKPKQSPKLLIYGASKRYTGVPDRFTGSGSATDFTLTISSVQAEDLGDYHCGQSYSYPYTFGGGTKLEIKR
2. S009-F5-9.16 (antibody, human IgG1, kappa, V domains shown, Human-murine chimeric antibody, human IgG1/kappa constant regions) VH: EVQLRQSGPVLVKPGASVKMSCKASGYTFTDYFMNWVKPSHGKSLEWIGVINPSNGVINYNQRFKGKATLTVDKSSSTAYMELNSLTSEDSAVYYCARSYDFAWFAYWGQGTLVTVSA VL: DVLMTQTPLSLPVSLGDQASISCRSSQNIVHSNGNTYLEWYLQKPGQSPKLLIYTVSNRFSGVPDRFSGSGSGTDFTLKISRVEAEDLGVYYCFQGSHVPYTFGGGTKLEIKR
3. S009-F4-127.10 (antibody, human IgG1, kappa, V domains shown, Human-murine chimeric antibody, human IgG1/kappa constant regions) VH: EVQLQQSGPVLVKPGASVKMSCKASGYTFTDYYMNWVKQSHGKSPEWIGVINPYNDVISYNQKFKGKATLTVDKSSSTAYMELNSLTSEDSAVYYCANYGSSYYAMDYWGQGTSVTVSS VL: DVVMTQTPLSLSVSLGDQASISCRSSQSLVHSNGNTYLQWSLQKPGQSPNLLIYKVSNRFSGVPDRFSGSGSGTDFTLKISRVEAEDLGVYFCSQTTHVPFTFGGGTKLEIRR

Response given:
1. 1.09
2. 0.04
3. 0.06

Value source: patent US20250250357A1
